Measured inhibition (INH) by item
Tested on: Rattus norvegicus
PROTOCOL NOTES: Antiovulatory activity in CD rat assessed as blockade of ovulation at 1 mg, sc administered as six doses at 1200, 1230, 1300, 1350, 1400 and 1450 hrs during proestrus stage measured during estrus stage by dissecting microscopic analysis
Assay type: functional
Peptide text beside a SMILES is read from it.
State just the number; it will be interpreted in %.

{"COMPOUND": "CCNC(=O)[C@@H]1CCCN1C(=O)[C@H](CCCNC(=N)N)NC(=O)[C@H](CC(C)C)NC(=O)[C@@H](Cc1ccccc1)NC(=O)[C@H](Cc1ccc(O)cc1)NC(=O)[C@H](CO)NC(=O)[C@H](Cc1c[nH]c2ccccc12)NC(=O)[C@H](COCc1ccccc1)NC(=O)OC(C)(C)C.Cl", "STUDY TARGET": "Rattus norvegicus", "UNITS TEXT": "%", "QUANTITATIVE RESULT": 0}
{"COMPOUND": "CC(C)C[C@H](NC(=O)OCc1ccccc1)C(=O)N[C@@H](Cc1c[nH]c2ccccc12)C(=O)N[C@@H](CO)C(=O)N[C@@H](Cc1ccc(O)cc1)C(=O)N[C@H](CC(N)=O)C(=O)N[C@@H](CC(C)C)C(=O)N[C@@H](CCCNC(=N)N)C(=O)N1CCC[C@H]1C(=O)NCC(N)=O.Cl", "STUDY TARGET": "Rattus norvegicus", "UNITS TEXT": "%", "QUANTITATIVE RESULT": 0}
{"COMPOUND": "CC(=O)O.CCNC(=O)[C@@H]1CCCN1C(=O)[C@H](CCCNC(=N)N)NC(=O)[C@H](CC(C)C)NC(=O)[C@@H](CC(N)=O)NC(=O)[C@H](Cc1ccc(O)cc1)NC(=O)[C@H](CO)NC(=O)[C@H](Cc1c[nH]c2ccccc12)NC(=O)[C@H](CCC(N)=O)NC(=O)OCc1ccccc1", "STUDY TARGET": "Rattus norvegicus", "UNITS TEXT": "%", "QUANTITATIVE RESULT": 20}
{"COMPOUND": "CC(=O)O.CCNC(=O)[C@@H]1CCCN1C(=O)[C@H](CCCNC(=N)N)NC(=O)[C@H](CC(C)C)NC(=O)[C@@H](CO)NC(=O)[C@H](Cc1ccc(O)cc1)NC(=O)[C@H](CO)NC(=O)[C@H](Cc1c[nH]c2ccccc12)NC(=O)[C@H](CCC(N)=O)NC(=O)OCc1ccccc1", "STUDY TARGET": "Rattus norvegicus", "UNITS TEXT": "%", "QUANTITATIVE RESULT": 0}
{"COMPOUND": "CCNC(=O)[C@@H]1CCCN1C(=O)[C@H](CCCNC(=N)N)NC(=O)[C@H](CC(C)C)NC(=O)[C@@H](Cc1c[nH]c2ccccc12)NC(=O)[C@H](Cc1ccc(O)cc1)NC(=O)[C@H](CO)NC(=O)[C@H](Cc1c[nH]c2ccccc12)NC(=O)[C@H](CCC(N)=O)NC(=O)OCc1ccccc1.Cl", "STUDY TARGET": "Rattus norvegicus", "UNITS TEXT": "%", "QUANTITATIVE RESULT": 20}

Returns the measured inhibition (INH) for the input compound. Input: CC(C)C[C@H](NC(=O)CNC(=O)[C@H](Cc1ccc(O)cc1)NC(=O)[C@H](CO)NC(=O)[C@H](Cc1c[nH]c2ccccc12)NC(=O)OCc1ccccc1)C(=O)N[C@@H](CCCNC(=N)N)C(=O)N1CCC[C@H]1C(=O)NCC(N)=O.Cl (HELM PEPTIDE1{[O=C(OCc1ccccc1)[*:2]].W.S.Y.G.L.R.P.G.[am]}$$$$V2.0)
20

Returns the measured inhibition (INH) for the input compound. Input: CC(=O)O.CCNC(=O)[C@@H]1CCCN1C(=O)[C@H](CCCNC(=N)N)NC(=O)[C@H](CC(C)C)NC(=O)[C@@H](Cc1ccccc1)NC(=O)[C@H](Cc1ccc(O)cc1)NC(=O)[C@H](CO)NC(=O)[C@H](Cc1c[nH]c2ccccc12)NC(=O)[C@H](CCC(=O)NCc1ccccc1)NC(=O)OCc1ccccc1
0

Returns the measured inhibition (INH) for the input compound. Input: CC(=O)O.CC(C)C[C@H](NC(=O)[C@@H](Cc1ccccc1)NC(=O)[C@H](Cc1ccc(O)cc1)NC(=O)[C@H](CO)NC(=O)[C@H](Cc1c[nH]c2ccccc12)NC(=O)[C@H](COCc1ccccc1)NC(=O)OCc1ccccc1)C(=O)N[C@@H](CCCNC(=N)N)C(=O)N1CCC[C@H]1C(=O)N(C)C
40

Returns the measured inhibition (INH) for the input compound. Input: COc1ccc(COC(=O)N[C@@H](COCc2ccccc2)C(=O)N[C@@H](Cc2c[nH]c3ccccc23)C(=O)N[C@@H](CO)C(=O)N[C@@H](Cc2ccc(O)cc2)C(=O)N[C@H](Cc2ccccc2)C(=O)N[C@@H](CC(C)C)C(=O)N[C@@H](CCCNC(=N)N)C(=O)N2CCC[C@H]2C(=O)NCC(N)=O)cc1.Cl
40

Returns the measured inhibition (INH) for the input compound. Input: CCNC(=O)[C@@H]1CCCN1C(=O)[C@H](CCCNC(=N)N)NC(=O)[C@H](CC(C)C)NC(=O)[C@@H](C)NC(=O)[C@H](Cc1ccc(O)cc1)NC(=O)[C@H](CO)NC(=O)[C@H](Cc1c[nH]c2ccccc12)NC(=O)[C@H](CCC(N)=O)NC(=O)OCc1ccccc1.Cl
20

###

STUDY TARGET: Gonadotropin-releasing hormone receptor (Rattus norvegicus) (UniProt P30969)
Sequence (whole entry): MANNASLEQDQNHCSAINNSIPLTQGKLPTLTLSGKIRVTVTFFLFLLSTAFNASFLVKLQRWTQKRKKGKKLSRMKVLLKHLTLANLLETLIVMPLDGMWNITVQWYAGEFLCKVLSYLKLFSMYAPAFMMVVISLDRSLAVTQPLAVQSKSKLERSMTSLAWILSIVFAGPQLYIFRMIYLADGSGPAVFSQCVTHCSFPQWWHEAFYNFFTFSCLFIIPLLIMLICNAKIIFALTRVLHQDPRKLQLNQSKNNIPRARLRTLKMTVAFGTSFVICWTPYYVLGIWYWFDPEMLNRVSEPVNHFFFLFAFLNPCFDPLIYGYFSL
PROTOCOL NOTES: In vitro antagonist activity at GNRHR in CD rat anterior pituitary gland assessed as inhibition of LH-RH-stimulated LH release at compound to LH-RH molar ratio of 1000 after 4 hrs by radioimmunoassay
SETUP CONDITIONS: concentration not given here
Peptide text beside a SMILES is read from it.
ATTRIBUTE MEASURED: inhibition (%)
State just the number; it will be interpreted in %.

// below: answered compounds
{"COMPOUND": "CC(C)C[C@H](NC(=O)CNC(=O)[C@H](Cc1ccc(O)cc1)NC(=O)[C@H](CO)NC(=O)[C@H](Cc1c[nH]c2ccccc12)NC(=O)[C@H](Cc1ccc(O)cc1)NC(=O)OCc1ccccc1)C(=O)N[C@@H](CCCNC(=N)N)C(=O)N1CCC[C@H]1C(=O)NCC(N)=O (HELM PEPTIDE1{[O=C(OCc1ccccc1)[*:2]].Y.W.S.Y.G.L.R.P.G.[am]}$$$$V2.0)", "STUDY TARGET": "Gonadotropin-releasing hormone receptor (Rattus norvegicus) (UniProt P30969)", "UNITS TEXT": "%", "QUANTITATIVE RESULT": 16}
{"COMPOUND": "CC(C)C[C@H](NC(=O)CNC(=O)[C@H](Cc1ccc(O)cc1)NC(=O)[C@H](CO)NC(=O)[C@H](Cc1c[nH]c2ccccc12)NC(=O)Cc1ccccc1)C(=O)N[C@@H](CCCNC(=N)N)C(=O)N1CCC[C@H]1C(=O)NCC(N)=O (HELM PEPTIDE1{[O=C(Cc1ccccc1)[*:2]].W.S.Y.G.L.R.P.G.[am]}$$$$V2.0)", "STUDY TARGET": "Gonadotropin-releasing hormone receptor (Rattus norvegicus) (UniProt P30969)", "UNITS TEXT": "%", "QUANTITATIVE RESULT": 51}

// moving on: another record for inhibition
Returns the measured inhibition for the input compound. Input: CC(C)C[C@H](NC(=O)CNC(=O)[C@H](Cc1ccc(O)cc1)NC(=O)[C@H](CO)NC(=O)[C@H](Cc1c[nH]c2ccccc12)NC(=O)[C@H](CC(C)C)NC(=O)OCc1ccccc1)C(=O)N[C@@H](CCCNC(=N)N)C(=O)N1CCC[C@H]1C(=O)NCC(N)=O.Cl (HELM PEPTIDE1{[O=C(OCc1ccccc1)[*:2]].L.W.S.Y.G.L.R.P.G.[am]}$$$$V2.0)
95

###

STUDY TARGET: Gonadotropin-releasing hormone receptor (Rattus norvegicus)
PROTOCOL NOTES: In vitro antagonist activity at GNRHR in CD rat anterior pituitary gland assessed as ratio of molar concentration of compound to LH-RH for inhibition of LH-RH-stimulated LH release after 4 hrs by radioimmunoassay
ATTRIBUTE MEASURED: ED50 (molar ratio)
State just the number; it will be interpreted in molar ratio.

// below: answered molecules
{"MOL": "CC(C)C[C@H](NC(=O)[C@@H](CC(C)C)NC(=O)[C@H](Cc1ccc(O)cc1)NC(=O)[C@H](CO)NC(=O)[C@H](Cc1c[nH]c2ccccc12)NC(=O)[C@H](Cc1ccc(OCc2ccccc2)cc1)NC(=O)OCc1ccccc1)C(=O)N[C@@H](CCCNC(=N)N)C(=O)N1CCC[C@H]1C(=O)NCC(N)=O.Cl", "QUANTITATIVE RESULT": 7}
{"MOL": "CCNC(=O)[C@@H]1CCCN1C(=O)[C@H](CCCNC(=N)N)NC(=O)[C@H](CC(C)C)NC(=O)[C@@H](Cc1c[nH]c2ccccc12)NC(=O)[C@H](Cc1ccc(O)cc1)NC(=O)[C@H](CO)NC(=O)[C@H](Cc1c[nH]c2ccccc12)NC(=O)[C@@H](NC(=O)OCc1ccccc1)[C@@H](C)CC.Cl", "QUANTITATIVE RESULT": 1.5}

// moving on: another record for ED50
Returns the measured ED50 for the input molecule. Input: CC(C)C[C@H](NC(=O)[C@@H](Cc1ccccc1)NC(=O)[C@H](Cc1ccc(O)cc1)NC(=O)[C@H](CO)NC(=O)[C@H](Cc1c[nH]c2ccccc12)NC(=O)[C@H](COCc1ccccc1)NC(=O)OCc1ccccc1)C(=O)N[C@@H](CCCNC(=N)N)C(=O)N1CCC[C@H]1C(=O)NCC(N)=O.Cl
1.5
